biological target: human MCH-1R (human, UniProt Q99705 1-353); experiment: cell-based or functional assay
Sequence (Q99705 whole entry): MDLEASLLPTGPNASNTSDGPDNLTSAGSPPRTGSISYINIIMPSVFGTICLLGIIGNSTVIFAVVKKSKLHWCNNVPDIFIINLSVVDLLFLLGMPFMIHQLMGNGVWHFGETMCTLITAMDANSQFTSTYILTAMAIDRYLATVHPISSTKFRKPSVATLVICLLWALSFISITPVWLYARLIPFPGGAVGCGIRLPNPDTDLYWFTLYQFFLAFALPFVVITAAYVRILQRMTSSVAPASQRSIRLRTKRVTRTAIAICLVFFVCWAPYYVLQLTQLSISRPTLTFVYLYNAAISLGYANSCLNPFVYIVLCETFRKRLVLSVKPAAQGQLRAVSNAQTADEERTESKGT
Positions of bridges follow the written chain, without caps; N, C: chain ends. Non-standard residues stand in square brackets, D forms with d. Cha = N[C@@H](CC1CCCCC1)C(=O)O
Reported property: Selectivity 2/1 (MCH-2R/MCH-1R EC50 activity ratio)

P: Ac-RCMLSRVYRPC-NH2 (disulfide 2-11 (inferred), also called Ser^10 peptide) [SEQ. ID. NO. 26 (Ser^10 analog of Ac-hMCH(6-16)-NH2)]
Q: RCMLXRVYRPC (N-terminal acetyl; Nle (norleucine) at position 10; C-terminal amide; disulfide cycle) [SEQ. ID. NO. 18 (Nle^10 analog of Ac-hMCH(6-16)-NH2)]
For the pair P and Q , which entry has the numerically smaller recorded Selectivity 2/1 (MCH-2R/MCH-1R EC50 activity ratio)? Please reply using the label of the selected record.
Q

A: Ac-RCMLARVYRPC-NH2 (disulfide 2-11 (inferred)) [SEQ. ID. NO. 16 (Ala^10 analog of Ac-hMCH(6-16)-NH2)]
B: Ac-RCMLNRVYRPC-NH2 (disulfide 2-11 (inferred), also called Asn^10 peptide) [SEQ. ID. NO. 25 (Asn^10 analog of Ac-hMCH(6-16)-NH2)]
Select one: A or B . Criterion: greater recorded Selectivity 2/1 (MCH-2R/MCH-1R EC50 activity ratio). Please reply using the label of the selected record.
B

A: Ac-RCML[Cha]RVYRPC-NH2 (disulfide 2-11) [SEQ. ID. NO. 19 (Cha^10 analog of Ac-hMCH(6-16)-NH2)]
B: Ac-RCMLKRVYRPC-NH2 (disulfide 2-11 (inferred)) [SEQ. ID. NO. 24 (Lys^10 analog of Ac-hMCH(6-16)-NH2)]
Select one: A or B . Criterion: greater recorded Selectivity 2/1 (MCH-2R/MCH-1R EC50 activity ratio). Please reply using the label of the selected record.
B
